These data points were gathered from patent US20260151403A1.

Listing of recorded activation at 1 µM by entry.
# TGT: [NEK7]-[compound of formula (I)]-[CRBN/DDB1] complex (Homo sapiens, UniProt Q8TDX7+Q96SW2)
# Sequence (Q8TDX7 whole entry): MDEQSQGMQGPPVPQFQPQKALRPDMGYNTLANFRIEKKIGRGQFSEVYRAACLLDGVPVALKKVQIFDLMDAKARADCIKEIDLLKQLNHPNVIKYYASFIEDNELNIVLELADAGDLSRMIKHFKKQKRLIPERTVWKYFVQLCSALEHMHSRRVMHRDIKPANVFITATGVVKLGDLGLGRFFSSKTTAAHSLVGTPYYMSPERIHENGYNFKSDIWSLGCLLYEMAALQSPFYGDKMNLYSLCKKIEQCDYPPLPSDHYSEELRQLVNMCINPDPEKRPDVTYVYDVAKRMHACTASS
# Sequence (Q96SW2 whole entry): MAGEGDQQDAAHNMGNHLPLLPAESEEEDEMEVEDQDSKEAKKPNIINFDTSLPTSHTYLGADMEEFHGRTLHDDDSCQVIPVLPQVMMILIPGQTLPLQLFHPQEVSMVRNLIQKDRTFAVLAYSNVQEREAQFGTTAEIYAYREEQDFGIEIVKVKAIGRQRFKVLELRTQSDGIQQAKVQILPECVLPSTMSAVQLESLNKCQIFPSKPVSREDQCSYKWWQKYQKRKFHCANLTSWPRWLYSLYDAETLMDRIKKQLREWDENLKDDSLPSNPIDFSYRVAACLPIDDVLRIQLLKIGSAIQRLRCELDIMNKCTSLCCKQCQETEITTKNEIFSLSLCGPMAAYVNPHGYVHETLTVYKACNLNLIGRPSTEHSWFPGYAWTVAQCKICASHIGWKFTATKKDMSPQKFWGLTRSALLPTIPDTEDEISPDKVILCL
# Sequence (Q16531 whole entry partner): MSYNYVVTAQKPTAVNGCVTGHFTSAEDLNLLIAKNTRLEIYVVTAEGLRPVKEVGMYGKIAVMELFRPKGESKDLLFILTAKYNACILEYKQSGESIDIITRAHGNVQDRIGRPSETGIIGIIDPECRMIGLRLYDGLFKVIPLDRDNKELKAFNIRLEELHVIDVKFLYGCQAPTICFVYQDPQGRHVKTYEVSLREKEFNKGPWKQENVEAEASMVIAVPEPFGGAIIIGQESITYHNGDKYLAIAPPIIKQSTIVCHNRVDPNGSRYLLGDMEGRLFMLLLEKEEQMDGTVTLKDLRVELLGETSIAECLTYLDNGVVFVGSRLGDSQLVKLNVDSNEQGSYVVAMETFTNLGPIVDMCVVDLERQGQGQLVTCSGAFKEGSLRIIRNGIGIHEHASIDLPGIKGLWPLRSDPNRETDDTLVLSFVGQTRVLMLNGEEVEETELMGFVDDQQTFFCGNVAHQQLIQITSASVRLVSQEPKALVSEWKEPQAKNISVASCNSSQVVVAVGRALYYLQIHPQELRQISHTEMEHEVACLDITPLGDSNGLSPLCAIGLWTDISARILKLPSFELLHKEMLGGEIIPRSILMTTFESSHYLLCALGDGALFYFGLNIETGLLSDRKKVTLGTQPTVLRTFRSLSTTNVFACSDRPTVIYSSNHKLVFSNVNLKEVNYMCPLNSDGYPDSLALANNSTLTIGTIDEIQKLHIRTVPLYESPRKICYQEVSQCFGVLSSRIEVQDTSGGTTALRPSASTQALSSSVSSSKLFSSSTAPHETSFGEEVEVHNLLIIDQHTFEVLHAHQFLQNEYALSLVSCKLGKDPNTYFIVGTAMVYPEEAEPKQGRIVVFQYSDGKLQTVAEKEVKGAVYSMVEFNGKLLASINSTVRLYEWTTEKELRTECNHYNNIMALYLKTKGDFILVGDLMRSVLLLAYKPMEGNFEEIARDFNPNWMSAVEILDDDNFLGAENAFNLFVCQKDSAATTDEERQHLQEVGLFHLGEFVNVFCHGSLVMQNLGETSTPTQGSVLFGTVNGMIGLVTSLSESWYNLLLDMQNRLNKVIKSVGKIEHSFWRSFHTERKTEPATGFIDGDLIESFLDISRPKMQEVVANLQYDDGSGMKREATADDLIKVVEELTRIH
# TEST: AlphaLISA dose response ternary complex formation assay
# Format: binding
# CONDITION_LABEL: 1 μM compound; normalized to maximum signal of Compound 2 (positive control) and DMSO background; read-out: Normalized AlphaLISA ternary complex average signal at 1 μM molecule
Structures can show the parent of a compound that is named as a salt.

compound="O=C1CCC(N2C(=O)c3ccc(C4CCCCN4)c4cccc2c34)C(=O)N1 (stereo not shown) [Compound 66, trifluoroacetate]" test_result="10 to 20%"
compound="CC(=O)Nc1ccc(-c2ccc3c(c2)CN(C2CCC(=O)NC2=O)C3=O)nc1 (stereo not shown)" test_result="> 80%"

Task: Item O=C1CCC(N2Cc3cc(-c4cc(C(F)(F)F)ccn4)ccc3C2=O)C(=O)N1 (stereo not shown) has what recorded activation at 1 µM?
Result: 20 to 80%

Task: Item Cc1c(C2CCCCN2)ccc2c1CN(C1CCC(=O)NC1=O)C2=O (stereo not shown) has what recorded activation at 1 µM?
Result: < 10%
